Readings of IC50 for the listed compounds
test system: HCT 116 TP53(-/-); experiment: Cytotoxicity against human HCT116-p53-null cells assessed as reduction in cell viability incubated for 72 hrs by MTS assay; type: functional, cell-based
# number only, unit µM dropped from output

Illustrative cases are given below, each with its answer.
Please give the measured IC50 for this compound: C[C@H]1[C@H](C)CC[C@]2(C(=O)O)CC[C@]3(C)C(=CC[C@@H]4[C@@]5(C)CC6=C(C7C(=O)N(c8ccccc8)C(=O)C7C=C6C(F)(F)F)C(C)(C)[C@@H]5CC[C@]43C)[C@H]12 (stereo not given in full)
12

# repeat for C[C@H]1[C@H](C)CC[C@]2(C(=O)O)CC[C@]3(C)C(=CC[C@@H]4[C@@]5(C)CC(C(=O)C(F)(F)F)C(=O)C(C)(C)[C@@H]5CC[C@]43C)[C@H]12 (stereo not given in full)
43

Follow-up entry: COC(=O)c1cc(C(F)(F)F)c2c(c1C(=O)OC)C(C)(C)[C@@H]1CC[C@]3(C)[C@H](CC=C4[C@@H]5[C@@H](C)[C@H](C)CC[C@]5(C(=O)O)CC[C@]43C)[C@@]1(C)C2
26

Then C[C@H]1[C@H](C)CC[C@]2(C(=O)O)CC[C@]3(C)C(=CC[C@@H]4[C@@]5(C)Cc6c(C(F)(F)F)cc(=O)oc6C(C)(C)[C@@H]5CC[C@]43C)[C@H]12 ?
27

Next compound: CC(C)[C@@H]1CC[C@]2(C(=O)O)CC[C@]3(C)[C@H](CC[C@@H]4[C@@]5(C)CC6=C(C7C(=O)N(c8ccccc8)C(=O)C7C=C6C(F)(F)F)C(C)(C)[C@@H]5CC[C@]43C)[C@@H]12 (stereo not given in full)
28

Now give it for C=C(C)[C@@H]1CC[C@]2(C(=O)O)CC[C@]3(C)[C@H](CC[C@@H]4[C@@]5(C)Cc6c(C(F)(F)F)cc(=O)oc6C(C)(C)[C@@H]5CC[C@]43C)[C@@H]12 too.
15

Also CC(C)[C@@H]1CC[C@]2(C(=O)O)CC[C@]3(C)[C@H](CC[C@@H]4[C@@]5(C)CC(C(=O)C(F)(F)F)C(=O)C(C)(C)[C@@H]5CC[C@]43C)[C@@H]12 (stereo not given in full) , if possible.
26

Likewise for C=C(C)[C@@H]1CC[C@]2(C(=O)O)CC[C@]3(C)[C@H](CC[C@@H]4[C@@]5(C)CC(C(=O)C(F)(F)F)C(=O)C(C)(C)[C@@H]5CC[C@]43C)[C@@H]12 (stereo not given in full) ?
30

Also CC(C)[C@@H]1CC[C@]2(C(=O)O)CC[C@]3(C)[C@H](CC[C@@H]4[C@@]5(C)Cc6c(C(F)(F)F)cc(=O)oc6C(C)(C)[C@@H]5CC[C@]43C)[C@@H]12 , if possible.
18

Next up: C=C(C)[C@@H]1CC[C@]2(C(=O)O)CC[C@]3(C)[C@H](CC[C@@H]4[C@@]5(C)Cc6c(C(F)(F)F)cc(C(=O)OC)c(C(=O)OC)c6C(C)(C)[C@@H]5CC[C@]43C)[C@@H]12
13

Further cases:
Please report the recorded IC50 for C=C(C)[C@@H]1CC[C@]2(C(=O)O)CC[C@]3(C)[C@H](CC[C@@H]4[C@@]5(C)CC6=C(C7C(=O)N(c8ccccc8)C(=O)C7C=C6C(F)(F)F)C(C)(C)[C@@H]5CC[C@]43C)[C@@H]12 (stereo not given in full) .
12

Taken from ChEMBL document CHEMBL5512642.
